System: VIOTR
Assay: Pre-emergence herbicidal action against VIOTR
Type: in vivo, Viola tricolor
Conditions: 320 g/ha
Answer each item with its documented Pre-emergence action against VIOTR in %.
Answer format: numeric, % implied, no suffix.

Request the reported Pre-emergence action against VIOTR in % associated with CC#Cc1cc(C)c(C2=C(OC(=O)OCC)C3(CCC(COCC)C3)NC2=O)c(OC)c1 (stereo not drawn) [Example P-49]
100

Another compound to check: CC#Cc1cc(C)c(C2=C(O)C3(CCC(COC)C3)NC2=O)c(OC)c1 (stereo not drawn) [Example I-33]
100

Now this one: C=CCOCC1CCC2(C1)NC(=O)C(c1c(C)cc(C#CC)cc1Cl)=C2O (stereo not drawn) [Example I-44]
100

Same again, this time with CC#Cc1cc(F)c(C2=C(OC(=O)OCC)C3(CCC(COCCC)C3)NC2=O)c(OC)c1 (stereo not drawn) [Example P-82]
90

# iterate: CC#Cc1cc(C)c(C2=C(OC(=O)OCC)C3(CCC(COCCC)C3)NC2=O)c(OC)c1 (stereo not drawn) [Example P-83]
90

Would you kindly repeat that for CC#Cc1cc(C)c(C2=C(OC(=O)C(C)C)C3(CCC(COC)C3)NC2=O)c(Br)c1 (stereo not drawn) [Example P-32] ?
100

Further, for C=CCOCC1CCC2(C1)NC(=O)C(c1c(C)cc(C#CC)cc1Br)=C2O (stereo not drawn) [Example I-70] ?
100

Also check CC#Cc1cc(C)c(C2=C(O)C3(CCC(COCC)C3)NC2=O)c(OC)c1 (stereo not drawn) [Example I-30]
100

Same thing, different compound: CC#Cc1cc(C)c(C2=C(OC(=O)OCC)C3(CCC(COCCC)C3)NC2=O)c(Cl)c1 (stereo not drawn) [Example P-87]
90
